target: StrepII-tagged ROR1-extracellular domain (human, UniProt Q01973); experiment: SPR (Biacore T200), purified mAb captured by anti-human Fc, ROR1-strep as analyte, 1:1 model
Sequence (Q01973 other isoform, or with tags, fused parts or gaps): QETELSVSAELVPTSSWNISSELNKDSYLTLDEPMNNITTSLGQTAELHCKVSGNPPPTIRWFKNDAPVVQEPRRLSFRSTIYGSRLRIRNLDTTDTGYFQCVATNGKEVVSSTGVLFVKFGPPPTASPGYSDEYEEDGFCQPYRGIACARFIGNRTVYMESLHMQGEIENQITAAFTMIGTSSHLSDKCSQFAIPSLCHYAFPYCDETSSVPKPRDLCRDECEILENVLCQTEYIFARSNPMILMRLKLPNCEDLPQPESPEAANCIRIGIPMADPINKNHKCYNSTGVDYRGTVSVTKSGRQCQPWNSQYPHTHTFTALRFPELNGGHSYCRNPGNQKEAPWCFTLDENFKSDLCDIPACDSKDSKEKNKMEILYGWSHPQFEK
Measured quantity: kon (M⁻¹ s⁻¹)
Just the number in M⁻¹ s⁻¹, nothing appended.

Ask | GET /values?readout=kon&item= hu2A2-D23, humanized from 2A2 (antibody, V domains shown) VH: QVQLVESGAEVKKPGASVKLSCKASGYTFSDYEMHWVRQAPGQRLEWMGAIDPETGGTAYNQKFKGRVTITVDKSASTAYMELSSLRSEDTAVYYCTGYYDYDSFTYWGPGTTVTVSS VL: DIVMTQSPSTLSASVGDRVTITCKASQNVDAAVAWYQQKPGTAPKLLIYSASNRYTGVPSRFSGSGSGTEFTLTISSLQSEDLADYFCQQYDIYPYTFGQGTKLEIK
Reply | 1.72e+06
